# Tested on: NCI-H226 lung
# EXPERIMENT_DESCRIPTION: NCI tumour cell line growth inhibition, 48 h; in the data active means GI50 below about 0.43 µM; inactive means the rest
Respond using exactly one of the listed classes: active, inactive

Please review the following examples before continuing.
[
  {
    "COMPOUND": "COc1ccc(-c2nnc(COc3ccc(C(=O)/C=C/c4ccco4)cc3)o2)cc1",
    "CAT": "inactive"
  },
  {
    "COMPOUND": "C=C1NC(=O)C(C(C)CC)NC(=O)C2CSCC(NC(=O)CCC(=O)O)C(=O)NC(Cc3ccccc3)C(=O)NC(C)C(=O)NC(CC(C)CC)C(=O)NC(C(=O)NC(Cc3ccccc3)C(=O)N3CCCC3C(=O)N2)C(C)OC(=O)C(CO)NC(=O)C(C(O)COC)N(C)C(=O)C(C(C)C)NC(=O)C(CC(C)CC)NC1=O (centres undefined)",
    "CAT": "active"
  },
  {
    "COMPOUND": "O=c1c2sccc2n(CC2COc3ccccc3O2)c(=O)n1O (centres undefined)",
    "CAT": "inactive"
  },
  {
    "COMPOUND": "COc1ccc([C@H]2[C@@H](F)C(=O)N2c2cc(OC)c(OC)c(OC)c2)cc1F",
    "CAT": "inactive"
  },
  {
    "COMPOUND": "Cc1c2c(nn1-c1ccc(S(=O)(=O)/N=C3\\SCCC(=O)N3c3ccccc3)cc1)-c1ccccc1CC2",
    "CAT": "inactive"
  },
  {
    "COMPOUND": "O=C(CSc1ccc(Cl)cc1)Nc1ccc(-c2nc3ccccc3s2)c(Cl)c1",
    "CAT": "inactive"
  },
  {
    "COMPOUND": "COc1cc(/C=C/c2cc(O)c(C(C)=O)c(O)c2)cc2c1O[C@]1(C)CC[C@@H](O)C(C)(C)[C@H]1C2",
    "CAT": "inactive"
  },
  {
    "COMPOUND": "O=C(/C=C/c1ccncc1)c1cc(Cl)ccc1O",
    "CAT": "inactive"
  }
]

Here's the next entry for you.
Enquiry: # fetch the recorded call for CC(C)[C@H]1COC(=O)N1[C@@H]1C(=O)N([C@@H](CCC(=O)N2CCN(C3CCCC3)CC2)C(=O)N[C@@H]2CCCc3ccccc32)[C@@H]1/C=C/c1cccc(Br)c1 here
Return: inactive
